The measurements presented in this section are drawn from the supplement of paper PMC11208160.

- experimentalProtocol: recombinant barcode read abundance after kanamycin selection (control-corrected) (log10(CPM+1)); higher = more efficient recombination; sequences stand for … in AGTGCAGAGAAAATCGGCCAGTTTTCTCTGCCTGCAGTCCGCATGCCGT…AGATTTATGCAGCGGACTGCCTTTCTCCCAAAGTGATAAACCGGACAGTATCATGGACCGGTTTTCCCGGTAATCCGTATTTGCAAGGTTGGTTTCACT; site = the 11-nt target
Reported recombinant barcode read abundance (log10) values follow for various sequences

Sample records with recombinant barcode read abundance (log10):
>>> result("TAGTCTGCTTGGGTTCTAACCTGTTGCCT (site TAGACTGCTAG)")
0.0965
>>> result("TAGCGGCCTTGGGTTCTAACCTGTTGCCT (site TAACGGCCTAG)")
0.651
>>> result("GTTTAATCTTGGGTTCTAACCTGTTGCAT (site TGGGTCACTTA)")
0.0197

Ask | Given the sequence TGGAATTCTTGGGTTCTAACCTGTTGCTT (site TGGACTTCTAA) , write its reported recombinant barcode read abundance (log10).
Reply | 0.0255

Ask | Specify recombinant barcode read abundance (log10) for CCTGACTCTTGGGTTCTAACCTGTTGCCT (site CCTGACTCTAG) and stop.
Reply | 0.85

Ask | Answer with the recorded recombinant barcode read abundance (log10) of CGGAACACTTGGGTTCTAACCTGTTGCGG (site CGGCACACTCC) only.
Reply | 0.755

Ask | Supply recorded recombinant barcode read abundance (log10) for GGATCGTCTTGGGTTCTAACCTGTTGCCT (site GGTTCCTCTAG) here.
Reply | 0.0567

Ask | Using known records, supply recombinant barcode read abundance (log10) for TTCTCGCCTTGGGTTCTAACCTGTTGCCT (site TTCGCGCCTAG)
Reply | 0.00706

Ask | Please give measured recombinant barcode read abundance (log10) of the following entry: TTACAATCTTGGGTTCTAACCTGTTGCCT (site GTACAATCTAG)
Reply | 0.0953

Ask | Output recombinant barcode read abundance (log10) of AACTAATCTTGGGTTCTAACCTGTTGCCT (site AACTAATCTAG)
Reply | 0.327

Ask | Identify measured recombinant barcode read abundance (log10) associated with AGAATCCCTTGGGTTCTAACCTGTTGCTA (site GCAATCCCTTA)
Reply | 0.106

Ask | Given AATAGGCCTTGGGTTCTAACCTGTTGCGT (site AATAGGCCTAC) , respond with its recombinant barcode read abundance (log10).
Reply | 1.6

Ask | Recall and state the measured recombinant barcode read abundance (log10) for ATGCGAGCTTGGGTTCTAACCTGTTGCTG (site ATGCGAGCTCT) .
Reply | 0.76

Ask | Supply measured recombinant barcode read abundance (log10) of GGAGACGCTTGGGTTCTAACCTGTTGCCT (site GGAGATGCTAG) in your reply.
Reply | 0.235

Ask | Identify measured recombinant barcode read abundance (log10) associated with CACCAGCCTTGGGTTCTAACCTGTTGCAT (site CACCAGCCTAT)
Reply | 1.98

Ask | Look up and report measured recombinant barcode read abundance (log10) for this entry: CGTAAATCTTGGGTTCTAACCTGTTGCCT (site CGAAAATCTAG)
Reply | 0.0185

Ask | Given the sequence TAGGATACTTGGGTTCTAACCTGTTGCGT (site TAGGAGACTAC) , write its reported recombinant barcode read abundance (log10).
Reply | 0.266

Ask | Identify recombinant barcode read abundance (log10) associated with the sequence CACACGACTTGGGTTCTAACCTGTTGCTT (site CACACGACTAA)
Reply | 0.496

Ask | Report measured recombinant barcode read abundance (log10); entry is CGTCAACCTTGGGTTCTAACCTGTTGCCT (site CGTCACCCTAG)
Reply | 0.117

Ask | Determine its reported recombinant barcode read abundance (log10): GTATGTGCTTGGGTTCTAACCTGTTGCAA (site GTATGTGCTTT)
Reply | 0.769

Ask | Indicate its recorded recombinant barcode read abundance (log10); the sequence in question is GCCATCACTTGGGTTCTAACCTGTTGCCT (site GCCATCACTAG)
Reply | 0.112

Ask | For the sequence AAGCCTTCTTGGGTTCTAACCTGTTGCTG (site GAGCCTTCTCT) , give its measured recombinant barcode read abundance (log10) value.
Reply | 0.236

Ask | Give recombinant barcode read abundance (log10) for the following sequence: CCTCAGGCTTGGGTTCTAACCTGTTGCCA (site CCTCAGGCTCG)
Reply | 0.0454

Ask | Kindly indicate its recorded recombinant barcode read abundance (log10). Item: GACACTGCTTGGGTTCTAACCTGTTGCCT (site GATACTGCTAG)
Reply | 0.233

Ask | Note recombinant barcode read abundance (log10) for the sequence shown: CAATTTCCTTGGGTTCTAACCTGTTGCAT (site GCCAGCTCTCA)
Reply | 0.0829

###

- experimentalProtocol: recombinant UMI read abundance after kanamycin selection (control-corrected) (log10(CPM+1)); higher = more efficient recombination; extreme values may be limits of the assay; sequences stand for … in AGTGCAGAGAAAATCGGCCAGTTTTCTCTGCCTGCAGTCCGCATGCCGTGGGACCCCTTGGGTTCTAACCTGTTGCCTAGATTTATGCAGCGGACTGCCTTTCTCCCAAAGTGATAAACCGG…AGGTTGGTTTCACT; site = the 11-nt donor
quantityKind: recombinant UMI read abundance (log10)

The examples below pair each entry with its known result.
>>> result("CGGGAGGCATGGACCGGTTTTCCCGGTAATCCGTATTTGCC (site CGGGAGGCTGG)")
0.183
>>> result("CAAGATTCATGGACCGGTTTTCCCGGTAATCCGTATTTGTT (site CAAGATTCTAA)")
3.22
>>> result("GACGCCGCATGGACCGGTTTTCCCGGTAATCCGTATTTGAG (site GACGCCGCTCT)")
0.349
>>> result("CACAGCCCATGGACCGGTTTTCCCGGTAATCCGTATTTGTT (site CACAGCCCTAA)")
0.97

Ask | Provide one value: measured recombinant UMI read abundance (log10) of ACATACTCATGGACCGGTTTTCCCGGTAATCCGTATTTGCA (site GCATACTCTTG)
Reply | 2.66

###

# maps each entry to its recombinant barcode read abundance (log10)
- experimentalProtocol: recombinant barcode read abundance after kanamycin selection (control-corrected) (log10(CPM+1)); higher = more efficient recombination; sequences stand for … in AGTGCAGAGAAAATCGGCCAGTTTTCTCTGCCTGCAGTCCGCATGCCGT…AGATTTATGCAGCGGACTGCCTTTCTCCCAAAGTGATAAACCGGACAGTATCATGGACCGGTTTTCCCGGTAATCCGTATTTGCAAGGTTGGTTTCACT; site = the 11-nt target
Lab note: record the figure alone, no unit after it.

>>> quantitativereadout("CAAACCTCTTGGGTTCTAACCTGTTGCAC (site CAAACCTCTGT)")
1.97
>>> quantitativereadout("AGTCATTCTTGGGTTCTAACCTGTTGCAT (site AGTCATTCTAT)")
0.45
>>> quantitativereadout("AACCACTCTTGGGTTCTAACCTGTTGCCT (site TACCACTCTAG)")
1.46
>>> quantitativereadout("GCGATCCCTTGGGTTCTAACCTGTTGCTT (site CATGAGACTCC)")
0.0103
>>> quantitativereadout("ATGAGGCCTTGGGTTCTAACCTGTTGCTA (site ATGAGGCCTTA)")
0.739

Ask | Note down recombinant barcode read abundance (log10) recorded for CTAGCTCCTTGGGTTCTAACCTGTTGCAG (site CTAGCTCCTCT)
Reply | 1.54

Ask | Please supply the value of reported recombinant barcode read abundance (log10) for the item TTGCATTCTTGGGTTCTAACCTGTTGCTG (site TTGCATTCTCA)
Reply | 0.962

Ask | Answer with the recorded recombinant barcode read abundance (log10) for the sequence listed here: TCGGAGTCTTGGGTTCTAACCTGTTGCGT (site TCGGAGTCTAG)
Reply | 0.969

Ask | Find the measured recombinant barcode read abundance (log10) of TAGCATACTTGGGTTCTAACCTGTTGCCC (site TAGCATACTAG) and report it.
Reply | 0.329

Ask | Complete the entry with recombinant barcode read abundance (log10) for GAGGGTCCTTGGGTTCTAACCTGTTGCCT (site GAGGGTCCTAT)
Reply | 0.457

Ask | Entry TCTAGAACTTGGGTTCTAACCTGTTGCCT (site TCTAGACCTAG) needs its recombinant barcode read abundance (log10) filled in; supply it.
Reply | 0.0178

###

- experimentalProtocol: recombinant UMI read abundance after kanamycin selection (control-corrected) (log10(CPM+1)); higher = more efficient recombination; extreme values may be limits of the assay; sequences stand for … in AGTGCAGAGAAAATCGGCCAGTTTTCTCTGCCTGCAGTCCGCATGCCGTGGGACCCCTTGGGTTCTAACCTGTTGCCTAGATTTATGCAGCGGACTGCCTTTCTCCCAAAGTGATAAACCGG…AGGTTGGTTTCACT; site = the 11-nt donor
Quick rule for you: recombinant UMI read abundance (log10) at 1 or higher means t, lower means f.

# count of solved cases: 6
>>> label("GATTGGACATGGACCGGTTTTCCCGGTAATCCGTATTTGAC (site GAATGGACTGT)")
"t"
>>> label("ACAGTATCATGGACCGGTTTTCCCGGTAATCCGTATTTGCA (site AAAATATCTTG)")
"t"
>>> label("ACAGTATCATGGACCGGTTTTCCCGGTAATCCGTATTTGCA (site AAAGTATCTTC)")
"f"
>>> label("AGGTTCCCATGGACCGGTTTTCCCGGTAATCCGTATTTGTG (site AAGTTCCCTCA)")
"f"
>>> label("ACTAGCACATGGACCGGTTTTCCCGGTAATCCGTATTTGAG (site ACTAGCACTCT)")
"t"
>>> label("CTATTAACATGGACCGGTTTTCCCGGTAATCCGTATTTGGA (site CTAATAACTTC)")
"f"

Ask | Hi, just wondering whether AGCCTTTCATGGACCGGTTTTCCCGGTAATCCGTATTTGAC (site GGCCTTTCTGT) shows recombinant UMI read abundance (log10) of 1 or higher.
Reply | f

Ask | Does the reported recombinant UMI read abundance (log10) for GTAGTCGCATGGACCGGTTTTCCCGGTAATCCGTATTTGCG (site TTAGTCGCTCG) fall at or above the 1 mark?
Reply | t

Ask | Tell me whether recombinant UMI read abundance (log10) is at least 1 here: CCTTTCTCATGGACCGGTTTTCCCGGTAATCCGTATTTGCG (site CCTTTCTCTCG)
Reply | f
